- System name: T1, human EGFRvIII-hFc protein (human, UniProt P00533 25-645)
- T1 construct: extracellular domain; made in HEK293 cells, purified on protein A; also called immunogen A; hFc-tagged EGFRvIII protein; not shown: human IgG Fc fragment (hFc) of the pCpC vector
- Assay remarks: ELISA, coated EGFRvIII-hFc, antibody 0.1 nM
Property: OD450 nm; scope: individual binders
Reply briefly: the number, and no unit.

{"columns": ["Binder", "OD450 nm"],
 "data": [
  ["Murine anti-46C4 (antibody, V domains shown, murine hybridoma antibody; also called 46C4A6) VH: EVHLQQSVAELVRPGASVKLSCTASGFNIKNTYMHWVKQRPEQGLEWIGRIDPANGNTKYAPKFQGKATITADTSSNTAYLQLSSLTSEDTAIYYCASDFDYWGQGTTLTVSS VL: DVLMTQTPLSLPVSLGDQVSISCRSSQSIVNSNGNTHLEWYLQKPGQSPKVLIYKVSKRFSGVPDRFSGSGSGTDFTLKISRVEAEDLGVYYCFQGSHVPYTFGGGTKLEIK", 0.72],
  ["Murine anti-64F1 (antibody, V domains shown, murine hybridoma antibody; also called 64F1F8) VH: QVQLQQSGAELARPGASVKMSCKASGYTFSSYTMHWAKQRPGQGLEWIGYINPSSGYTKYNQKFKDKATLTADKSSSTAYMQLSSLTSEDSIVYYCARGGGRGFAYWGQGTLVTVSA VL: QIVLTQSPAIMSASPGERVTMTCSASSSVSYMYWYQQKPGSSPRLLIYDTSNLASGVPVRFSGSGSGTSYSLTISRVEAEDAATYYCQQWSSYSLTFGAGTKLELK", 1]
]}

// switching to the query binder
stdin: Look up and state reported OD450 nm for Murine anti-64B11 (antibody, V domains shown, murine hybridoma antibody; also called 64B11F2) VH: EVQLQQSGAELVKPGASVKLSCTASGFNIKDYYMHWVKQRTEQGLEWIGRIDPEDGETKYAPKFQGKATITADTSSNTAYLQLSNLPSEDTAVYYCGCRTGGFAYWGQGTLVTVSA VL: DILMTQSPSSMSVSLGDTVSITCHASQGINSNIGWLQQKPGKSFKALIYHGTNLEDGVPSRFSGSGSGADYSLTISSLESEDFADYYCVQYAQFPFTFGSGTELEIK
stdout: 0.24

Origin of measurements: patent US20210032351A1
